Entries and their pIC50
SYSTEM: Human PD-L1/PD-1 (Homo sapiens)
Construct: TVMV protease cleavage site (C); made in house; host or cells: HEK293T cells
Sequence (Q9NZQ7 with tags, fused parts or gaps): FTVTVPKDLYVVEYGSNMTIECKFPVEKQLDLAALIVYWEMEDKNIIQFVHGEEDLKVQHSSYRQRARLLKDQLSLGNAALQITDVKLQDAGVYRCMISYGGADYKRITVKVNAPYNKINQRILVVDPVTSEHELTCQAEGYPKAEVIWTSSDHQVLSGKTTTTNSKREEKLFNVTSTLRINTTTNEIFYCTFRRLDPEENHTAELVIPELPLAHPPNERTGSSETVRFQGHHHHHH
ASSAY_DETAILS: HTRF Human PD-L1/PD-1 binding assay (PD-1-Ig/PD-L1-His)
CONDITION_DETAILS: PD-L1-His 10 nM, PD-1-Ig 20 nM; class symbol; read-out: HTRF Human PD-L1/PD-1 Binding Assay IC50 Range
pIC50: −log10 of the molar value. Where a SMILES comes first, the peptide text is derived from it. Bridges are numbered along the chain shown (N, C = ends). [ ]: non-standard residue; d: D form. ξ: configuration not given here. Bta = N[C@@H](Cc1csc2ccccc12)C(=O)O; Hyp = O=C(O)[C@@H]1C[C@@H](O)CN1; NMeNle = CCCC[C@H](NC)C(=O)O; hSer = N[C@@H](CCO)C(=O)O; NMeA = CN[C@@H](C)C(=O)O; Dab = NCC[C@H](N)C(=O)O; ξC = NC(CS)C(=O)O
VALUE_TYPE: pIC50

molecule="CCCC[C@H]1C(=O)N(C)[C@@H](CCCC)C(=O)N[C@@H](CC(C)C)C(=O)N[C@H](C(=O)NCC(N)=O)CSCC(=O)N[C@@H](Cc2ccc(O)cc2)C(=O)N(C)[C@@H](C)C(=O)N[C@@H](CC(N)=O)C(=O)N2CCC[C@H]2C(=O)N[C@H](C)C(=O)N[C@@H](CCC(=O)O)C(=O)N2C[C@H](O)C[C@H]2C(=O)N[C@@H](Cc2c[nH]c3ccccc23)C(=O)N[C@@H](CCN)C(=O)N[C@@H](Cc2csc3ccccc23)C(=O)N1C [Example 5248] ({CH2CO}-Y[NMeA]NP[dA]E[Hyp]W[Dab][Bta][NMeNle][NMeNle]LCG-NH2; thioether N-14)" test_value="8.00 to 9.00"
molecule="CCCC[C@H]1C(=O)N(C)[C@@H](C)C(=O)N[C@@H](CCCNC(=N)N)C(=O)NC(C(=O)NCC(N)=O)CSCC(=O)N[C@@H](Cc2ccc(O)cc2)C(=O)N(C)[C@@H](C)C(=O)N[C@@H](CC(N)=O)C(=O)N2CCC[C@H]2C(=O)N[C@@H](CC(N)=O)C(=O)N[C@@H](CC(C)C)C(=O)N2C[C@H](O)C[C@H]2C(=O)N[C@@H](Cc2c[nH]c3ccccc23)C(=O)N[C@@H](CO)C(=O)N[C@@H](Cc2csc3ccccc23)C(=O)N1C (stereo partly shown) [Example 9139] ({CH2CO}-Y[NMeA]NPNL[Hyp]WS[Bta][NMeNle][NMeA]R[ξC]G-NH2; thioether N-14)" test_value="8.00 to 9.00"
molecule="CCCC[C@H]1C(=O)N[C@@H](CC(N)=O)C(=O)N2CCC[C@H]2C(=O)N[C@@H](CO)C(=O)N[C@@H](CCO)C(=O)N2C[C@H](O)C[C@H]2C(=O)N[C@@H](Cc2c[nH]c3ccccc23)C(=O)N[C@@H](CCN)C(=O)N[C@@H](Cc2c[nH]c3ccccc23)C(=O)N(C)[C@@H](C)C(=O)N(C)[C@@H](C)C(=O)N[C@@H](CCCNC(=N)N)C(=O)NC(C(=O)NCC(N)=O)CSCC(=O)N[C@@H](Cc2ccc(O)cc2)C(=O)N1C (stereo partly shown) [Example 10200] ({CH2CO}-Y[NMeNle]NPS[hSer][Hyp]W[Dab]W[NMeA][NMeA]R[ξC]G-NH2; thioether N-14)" test_value="5.00 to 6.00"
molecule="CCCC[C@H]1C(=O)N(C)[C@@H](CCCC)C(=O)NCC(=O)N[C@H](C(=O)NCC(N)=O)CSCC(=O)N[C@@H](Cc2ccc(O)cc2)C(=O)N(C)[C@@H](C)C(=O)N[C@@H](CC(N)=O)C(=O)N2CCC[C@H]2C(=O)NCC(=O)N[C@@H](CCC(N)=O)C(=O)N2C[C@H](O)C[C@H]2C(=O)N[C@@H](Cc2c[nH]c3ccccc23)C(=O)N[C@@H](CO)C(=O)N[C@@H](Cc2c[nH]c3ccccc23)C(=O)N1C [Example 5175] ({CH2CO}-Y[NMeA]NPGQ[Hyp]WSW[NMeNle][NMeNle]GCG-NH2; thioether N-14)" test_value="8.00 to 9.00"
